meta.source: paper PMC12516379

The following molecules are listed with their measured half-life at 3 µM values.
assay: Plasma stability assay at 37 °C via LC-MS/MS, human plasma; format: in vitro ADME; conditions: human, plasma, 3 µM, LC-MS/MS, read-out: t1/2 in human plasma at 37 °C (Tables S10-S13, S18) (converted);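 note: prodrugs at 3 µM incubated in human plasma at 37 °C, intact prodrug quantified by LC-MS/MS over time, values are means of duplicate runs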
Hi! Could you send only the number? It should be in h, unit omitted.

Which half-life at 3 µM is listed for CNC1(CN(C)C(=O)O/N=C(\C)[C@H]2CC[C@H]3[C@@H]4CCC5=CC(=O)CC[C@]5(C)[C@H]4CC[C@]23C)CCC1 [20t] ? 0.44

Which half-life at 3 µM value is on record for CNCCN(C)C(=O)O/N=C(\C)[C@H]1CC[C@H]2[C@@H]3CCC4=CC(=O)CC[C@]4(C)[C@H]3CC[C@]12C [20a] ? 3.14

Find the recorded half-life at 3 µM belonging to C/C(=N\OC(=O)N(CCO)CCNCCO)[C@H]1CC[C@H]2[C@@H]3CCC4=CC(=O)CC[C@]4(C)[C@H]3CC[C@]12C.Cl [20z] and report it. 2.3

Request the reported half-life at 3 µM associated with C/C(=N\OC(=O)N(C)C[C@@H]1CCN1)[C@H]1CC[C@H]2[C@@H]3CCC4=CC(=O)CC[C@]4(C)[C@H]3CC[C@]12C [20o] 0.29

====

assay: PBS stability assay at 37 °C via LC-MS/MS; type: physicochemical; conditions: phosphate-buffered saline (DPBS), pH 7.03, PBS, 37 °C; read-out: PBS, 37 °C t½ (Table S23) (converted)
The following compounds are shown together with reported half-life at 3 µM values.
Lab book: enter the figure in h, no units written.

compound | half-life at 3 µM, h
CNCCN(CCCN1CCOCC1)C(=O)O/N=C(\C)[C@H]1CC[C@H]2[C@@H]3CCC4=CC(=O)CC[C@]4(C)[C@H]3CC[C@]12C.O=C(O)C(F)(F)F [20i] | 5.45
CNC1(CN(C)C(=O)O/N=C(\C)[C@H]2CC[C@H]3[C@@H]4CCC5=CC(=O)CC[C@]5(C)[C@H]4CC[C@]23C)CCC1 [20t] | 0.94
C/C(=N\OC(=O)N(C)C[C@@H]1C[C@H](N(C)C)CN1)[C@H]1CC[C@H]2[C@@H]3CCC4=CC(=O)CC[C@]4(C)[C@H]3CC[C@]12C [20u] | 1.08
CNCCN(C)C(=O)O/N=C(\C)[C@H]1CC[C@H]2[C@@H]3CCC4=CC(=O)CC[C@]4(C)[C@H]3CC[C@]12C [20a] | 8.07
CNCCN(C(=O)O/N=C(\C)[C@H]1CC[C@H]2[C@@H]3CCC4C[C@H](O)CC[C@]4(C)[C@H]3CC[C@]12C)C1CC1.O=C(O)C(F)(F)F (stereo partly drawn) [21b] | 4.08

Find the recorded half-life at 3 µM belonging to C/C(=N\OC(=O)N(C)C[C@@H]1CC(F)(F)CN1)[C@H]1CC[C@H]2[C@@H]3CCC4=CC(=O)CC[C@]4(C)[C@H]3CC[C@]12C [20r] and report it. 4.93

Return reported half-life at 3 µM; argument: CNCCN(C(=O)O/N=C(\C)[C@H]1CC[C@H]2[C@@H]3CCC4=CC(=O)CC[C@]4(C)[C@H]3CC[C@]12C)C1CC1.O=C(O)C(F)(F)F [20b] 4.5

What half-life at 3 µM value was documented for this compound, C/C(=N\OC(=O)N(C)C[C@@H]1CC2(CC2)CN1)[C@H]1CC[C@H]2[C@@H]3CCC4=CC(=O)CC[C@]4(C)[C@H]3CC[C@]12C [20q] ? 0.7

I have this compound here, CNCCN(CC(C)C)C(=O)O/N=C(\C)[C@H]1CC[C@H]2[C@@H]3CCC4=CC(=O)CC[C@]4(C)[C@H]3CC[C@]12C.O=C(O)C(F)(F)F [20f] , and I need its recorded half-life at 3 µM. 5.07

Quick one: half-life at 3 µM of CNCCN(C(=O)O/N=C(\C)[C@H]1CC[C@H]2[C@@H]3CCC4=CC(=O)CC[C@]4(C)[C@H]3CC[C@]12C)C1CCC1.O=C(O)C(F)(F)F [20d] ? 2.32

Reported half-life at 3 µM for CNCCN(C(=O)O/N=C(\C)[C@H]1CC[C@H]2[C@@H]3CCC4=CC(=O)CC[C@]4(C)[C@H]3CC[C@]12C)C1CCCC1.O=C(O)C(F)(F)F [20e] : what is it? 1.74

Can you look up the measured half-life at 3 µM of C/C(=N\OC(=O)N(C)C[C@@H]1CCN1)[C@H]1CC[C@H]2[C@@H]3CCC4=CC(=O)CC[C@]4(C)[C@H]3CC[C@]12C [20o] for me? 0.9

====

test: PBS stability assay at 37 °C via LC-MS/MS; assay type: physicochemical; settings: PBS, 37 °C, 2 h
In this section we review reported PBS, 37 °C %rem. at 2h (Table S23) values for a set of molecules.
Form entry: value (%) — number only.

Example results:
molecule | unitsSymbol | PBS, 37 °C %rem. at 2h (Table S23)
CNCCN(C(=O)O/N=C(\C)[C@H]1CC[C@H]2[C@@H]3CCC4=CC(=O)CC[C@]4(C)[C@H]3CC[C@]12C)C(C)C.O=C(O)C(F)(F)F [20c] | % | 53
CNCCN(C)C(=O)O/N=C(\C)[C@H]1CC[C@H]2[C@@H]3CCC4=CC(=O)CC[C@]4(C)[C@H]3CC[C@]12C [20a] | % | 77
CNCCN(C(=O)O/N=C(\C)[C@H]1CC[C@H]2[C@@H]3CCC4=CC(=O)CC[C@]4(C)[C@H]3CC[C@]12C)C1CCC1.O=C(O)C(F)(F)F [20d] | % | 44
CNCCN(CC(C)C)C(=O)O/N=C(\C)[C@H]1CC[C@H]2[C@@H]3CCC4=CC(=O)CC[C@]4(C)[C@H]3CC[C@]12C.O=C(O)C(F)(F)F [20f] | % | 55
CNCCN(C(=O)O/N=C(\C)[C@H]1CC[C@H]2[C@@H]3CCC4=CC(=O)CC[C@]4(C)[C@H]3CC[C@]12C)C1CC1.O=C(O)C(F)(F)F [20b] | % | 68

Proceed to the following item.
Entry under review: CNC1(CN(C)C(=O)O/N=C(\C)[C@H]2CC[C@H]3[C@@H]4CCC5=CC(=O)CC[C@]5(C)[C@H]4CC[C@]23C)CC1 [20s] . Reported PBS, 37 °C %rem. at 2h (Table S23)? 93

====

Each entry below lists one item and its recorded half-life at 1 mg/mL value.
assay: Stability in PBS at room temperature via HPLC (UV); type: physicochemical; conditions: phosphate-buffered saline (DPBS), pH 7.03, PBS, rt, HPLC (UV); read-out: Half-life (t½) PBS rt (converted)
Answer shape: numeric part, then the unit.

molecule | half-life at 1 mg/mL
CNCCN(CCN(C)C)C(=O)O/N=C(\C)[C@H]1CC[C@H]2[C@@H]3CCC4=CC(=O)CC[C@]4(C)[C@H]3CC[C@]12C [20g] | 2.17 h

If you can, please state the reported half-life at 1 mg/mL value of CNCCN(C(=O)O/N=C(\C)[C@H]1CC[C@H]2[C@@H]3CCC4=CC(=O)CC[C@]4(C)[C@H]3CC[C@]12C)C1CC1.O=C(O)C(F)(F)F [20b] . 28.2 h

Which half-life at 1 mg/mL reading was recorded for the molecule CNCCN(C(=O)O/N=C(\C)[C@H]1CC[C@H]2[C@@H]3CCC4=CC(=O)CC[C@]4(C)[C@H]3CC[C@]12C)C1CCC1.O=C(O)C(F)(F)F [20d] ? 11.8 h

Recorded half-life at 1 mg/mL of C/C(=N\OC(=O)N(C)C[C@@H]1CCN1)[C@H]1CC[C@H]2[C@@H]3CCC4=CC(=O)CC[C@]4(C)[C@H]3CC[C@]12C [20o] , please. 6.3 h

Name the reported half-life at 1 mg/mL value associated with the molecule CNCCN(C(=O)O/N=C(\C)[C@H]1CC[C@H]2[C@@H]3CCC4=CC(=O)CC[C@]4(C)[C@H]3CC[C@]12C)C1CCCC1.O=C(O)C(F)(F)F [20e] 10.7 h

# half-life at 1 mg/mL lookup, item CNC1(CN(C)C(=O)O/N=C(\C)[C@H]2CC[C@H]3[C@@H]4CCC5=CC(=O)CC[C@]5(C)[C@H]4CC[C@]23C)CCC1 [20t] 10.5 h

Look up half-life at 1 mg/mL: C/C(=N\OC(=O)N(C)C[C@@H]1CCCN1)[C@H]1CC[C@H]2[C@@H]3CCC4=CC(=O)CC[C@]4(C)[C@H]3CC[C@]12C.O=C(O)C(F)(F)F [20l] 1.9 h

====

Entries and their half-life at 1 mg/mL values follow.
assay: Stability in PBS at room temperature via HPLC (UV); type: physicochemical; details: phosphate-buffered saline (DPBS), pH 7.03, DPBS pH 7.03, RT, 1 mg/mL, HPLC 254 nm; read-out: t1/2 in PBS buffer at RT (Tables S1-S4) (converted)
# number only, unit h dropped from output

Guide cases for half-life at 1 mg/mL, answers given:
compound | half-life at 1 mg/mL [h]
CNCCN(C(=O)O/N=C(\C)[C@H]1CC[C@H]2[C@@H]3CCC4=CC(=O)CC[C@]4(C)[C@H]3CC[C@]12C)C1CCC1.O=C(O)C(F)(F)F [20d] | 11.8
C/C(=N\OC(=O)N(CCN)CCN)[C@H]1CC[C@H]2[C@@H]3CCC4=CC(=O)CC[C@]4(C)[C@H]3CC[C@]12C [20w] | 10.1

Dear colleague, I am looking for the recorded half-life at 1 mg/mL of the following compound: C/C(=N\OC(=O)N(C)C[C@H]1CCCN1)[C@H]1CC[C@H]2[C@@H]3CCC4=CC(=O)CC[C@]4(C)[C@H]3CC[C@]12C.O=C(O)C(F)(F)F [20m] 6.15
